Experiment: Partition coefficient octanol/buffer
Assay type: physicochemical
Details: octanol/buffer, pH 9, octanol/buffer pH = 9.0; read-out: Partition coefficient P (converted)
Where a name gives a salt, the structure may show the parent alone.
assay.endpoint: logD
Respond numerically, and do not add a unit to the figure.

Challenge: So what's the measured logD for this one? CNCCc1ccccn1 [BETAHISTINE FUMARATE, Betahistine Fumarate]
Response given: -0.904

* * *

Assay: Bioavailability test on rats
Settings: rat, in vivo; rats; 0-3 hours; read-out: AUCs, in the time 0-3 hours
Counter-ions that a name gives are not always drawn.
assay.endpoint: AUC at 3 h (µg·h/mL)
State just the number; it will be interpreted in µg·h/mL.

Challenge: So what's the measured AUC at 3 h for this one? CNCCc1ccccn1 [BETAHISTINE FUMARATE, Betahistine Fumarate]
Response given: 8.2
